Values were extracted from patent US20070208031A1.

Measured microsomal CLint at 0.5 uM, listed per entry for reference.
test: In vitro intrinsic clearance in microsomes (Assay 3), dog; assay type: in vitro ADME; conditions: pH 7.4; heading: Assay 3 - Microsomal Cl; dog female microsomes, 0.5 uM compound, 0.5 mg/mL protein

MOLECULE | microsomal CLint at 0.5 uM
CC[C@H](C)[C@@H]1C(=O)N[C@H](C2Cc3ccccc3C2)C(=O)N1[C@@H](C(=O)N(C)C)c1ccc2c(cnn2C)c1 | 1 to 8 mL/min/g
CC[C@H](C)[C@@H]1C(=O)N[C@H](C2Cc3ccccc3C2)C(=O)N1[C@@H](C(=O)NC)c1ccc2c(cnn2C)c1 | 1 to 8 mL/min/g
CC(C)C[C@@H]1C(=O)N[C@H](C2Cc3ccccc3C2)C(=O)N1[C@@H](C(=O)N(C)C)c1ccc(F)cc1F [Comparator compound Y, reference compound] | 1 to 8 mL/min/g
CC(C)C[C@@H]1C(=O)N[C@H](C2Cc3ccccc3C2)C(=O)N1[C@@H](C(=O)N(C)C)c1ccc2[nH]ncc2c1 [Comparator compound X, reference compound] | 16 to 20 mL/min/g
